meta.source: patent US11478558B2

tested on: PSMA+ PC3 PIP tumors; assay: Radiopharmaceutical therapy in PC3 PIP flank tumor growth delay model; assay type: in vivo, NOD/SCID mice; conditions: single i.v. dose 111 MBq (3 mCi)
Would you kindly list Average final body weight for each of these compounds?

Task: Requested field: Average final body weight. Item: O=C([O-])CN1CCN(CC(=O)[O-])CCN(CC(=O)NCc2ccc(C(=O)NCCCCCC(=O)N(CCCC[C@H](NC(=O)N[C@@H](CCC(=O)O)C(=O)O)C(=O)O)Cc3ccc(Br)cc3)cc2)CCN(CC(=O)[O-])CC1.[177Lu+3] [^177Lu-L3]
Result: 25.8 ± 2.6 gram

Task: Name the recorded Average final body weight for O=C([O-])CN1CCN(CC(=O)[O-])CCN(CC(=O)NCC2CCC(C(=O)N[C@@H](Cc3ccc4ccccc4c3)C(=O)NCCCC[C@H](NC(=O)N[C@@H](CCC(=O)O)C(=O)O)C(=O)O)CC2)CCN(CC(=O)[O-])CC1.[177Lu+3] (stereo partly shown) [^177Lu-PSMA-617, reference compound] .
Result: 24.6 ± 3.6 gram

Task: Which value of Average final body weight has been reported for O=C([O-])CN1CCN(CC(=O)[O-])CCN(CC(=O)NCc2ccc(C(=O)NCCCCNC(=O)CCCCCCC(=O)N(CCCC[C@H](NC(=O)N[C@@H](CCC(=O)O)C(=O)O)C(=O)O)Cc3ccc(Br)cc3)cc2)CCN(CC(=O)[O-])CC1.[177Lu+3] [^177Lu-L5] in the records?
Result: 27.5 ± 1.9 gram

Task: Please report the recorded Average final body weight for O=C([O-])CN1CCN(CC(=O)[O-])CCN(CC(=O)NCCCCC(=O)N(CCCC[C@H](NC(=O)N[C@@H](CCC(=O)O)C(=O)O)C(=O)O)Cc2ccc(Br)cc2)CCN(CC(=O)[O-])CC1.[177Lu+3] [^177Lu-L1] .
Result: 26.1 ± 1.4 gram

###

tested on: PSMA(+) PC3 PIP cells; experiment: Cell uptake, cell surface binding and internalization in PSMA(+) PC3 PIP cells; format: cell-based, human
Consider the following compounds; for each one, report its specific internalization.
Provide the measurement as a number trailed by its unit.

Task: Which specific internalization reading was recorded for the compound O=C(O)CC[C@H](NC(=O)N[C@@H](CCCCN(Cc1ccc(Br)cc1)C(=O)CCCCNC(=S)Nc1ccc(CC2CN(CC(=O)O)CCN(CC(=O)O)CCN(CC(=O)O)CCN2CC(=O)O)cc1)C(=O)O)C(=O)O (stereo partly shown) ?
Result: 20.06 % IA/10^6 cells

Task: Fill in the blank: the reported specific internalization of O=C(O)CC[C@H](NC(=O)N[C@@H](CCCCN(Cc1ccc(Br)cc1)C(=O)CCCCCCC(=O)NCCCCNC(=O)c1ccc(CNC(=O)CN2CCN(CC(=O)O)CCN(CC(=O)O)CCN(CC(=O)O)CC2)cc1)C(=O)O)C(=O)O is ____.
Result: 22.03 ± 0.60 % IA/10^6 cells

Task: Look up specific internalization: O=C(O)CC[C@H](NC(=O)N[C@@H](CCCCN(Cc1ccc(Br)cc1)C(=O)CCCCNC(=O)CN1CCN(CC(=O)O)CCN(CC(=O)O)CCN(CC(=O)O)CC1)C(=O)O)C(=O)O
Result: 23.68 ± 0.16 % IA/10^6 cells

Task: Return reported specific internalization; argument: O=C(O)CC[C@H](NC(=O)N[C@@H](CCCCNC(=O)[C@H](Cc1ccc2ccccc2c1)NC(=O)[C@H]1CC[C@H](CNC(=O)CN2CCN(CC(=O)O)CCN(CC(=O)O)CCN(CC(=O)O)CC2)CC1)C(=O)O)C(=O)O [PSMA-617, reference compound]
Result: 21.1 ± 0.9 % IA/10^6 cells

###

molecular target: PSMA (Homo sapiens (Human), UniProt Q04609); assay: PSMA binding affinity; conditions: Table 1
Sequence (Q04609 whole entry): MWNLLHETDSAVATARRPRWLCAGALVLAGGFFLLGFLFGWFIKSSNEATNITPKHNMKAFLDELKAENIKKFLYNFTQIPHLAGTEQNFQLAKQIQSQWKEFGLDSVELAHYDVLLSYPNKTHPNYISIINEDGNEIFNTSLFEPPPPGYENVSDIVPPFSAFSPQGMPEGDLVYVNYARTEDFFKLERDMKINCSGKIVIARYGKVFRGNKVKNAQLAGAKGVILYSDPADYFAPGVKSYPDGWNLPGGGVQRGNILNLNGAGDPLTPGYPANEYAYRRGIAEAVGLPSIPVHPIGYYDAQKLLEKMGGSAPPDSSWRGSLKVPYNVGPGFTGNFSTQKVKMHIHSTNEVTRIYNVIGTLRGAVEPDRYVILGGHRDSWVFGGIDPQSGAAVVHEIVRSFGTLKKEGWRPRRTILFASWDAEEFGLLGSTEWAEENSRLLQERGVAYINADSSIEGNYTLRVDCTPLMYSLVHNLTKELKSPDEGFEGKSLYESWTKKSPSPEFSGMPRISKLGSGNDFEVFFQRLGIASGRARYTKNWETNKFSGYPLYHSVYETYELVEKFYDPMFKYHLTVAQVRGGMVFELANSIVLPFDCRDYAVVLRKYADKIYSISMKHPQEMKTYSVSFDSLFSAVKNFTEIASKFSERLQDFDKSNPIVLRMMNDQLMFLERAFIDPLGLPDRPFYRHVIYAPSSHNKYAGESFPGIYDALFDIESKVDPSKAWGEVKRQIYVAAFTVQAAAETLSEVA
parameter: pKi
Recall that pKi is obtained by taking minus log10 of the concentration measured in molar.

Task: Returns the measured pKi for the input compound. Input: O=C(O)CC[C@H](NC(=O)N[C@@H](CCCCNC(=O)CCCCNC(=S)Nc1ccc(CC2CN(CC(=O)O)CCN(CC(=O)O)CCN(CC(=O)O)CCN2CC(=O)O)cc1)C(=O)O)C(=O)O (some centres unmarked) [Ligand 3]
Result: 9.37

Task: Reported pKi, compound O=C(O)CC[C@H](NC(=O)N[C@@H](CCCCN(Cc1ccc(Br)cc1)C(=O)CCCCNC(=O)CN1CCN(CC(=O)O)CCN(CC(=O)O)CCN(CC(=O)O)CC1)C(=O)O)C(=O)O [Ligand 2] : ____
Result: 8.89

###

test system: PSMA(+) PC3 PIP cells; test: Cell uptake, cell surface binding and internalization in PSMA(+) PC3 PIP cells; format: cell-based, human
parameter: specific internalization
Answer shape: numeric part, then the unit.

Task: Given the entry O=C(O)CC[C@H](NC(=O)N[C@@H](CCCCN(Cc1ccc(Br)cc1)C(=O)CCCCCNC(=O)c1ccc(CNC(=O)CN2CCN(CC(=O)O)CCN(CC(=O)O)CCN(CC(=O)O)CC2)cc1)C(=O)O)C(=O)O [Ligand L3] , what specific internalization was observed with PSMA(+) PC3 PIP cells?
Result: 22.03 ± 0.60 % IA/10^6 cells

Task: Enter reported specific internalization observed with PSMA(+) PC3 PIP cells for O=C(O)CC[C@H](NC(=O)N[C@@H](CCCCN(Cc1ccc(Br)cc1)C(=O)CCCCNC(=O)CCC(C(=O)O)N1CCN(CC(=O)O)CCN(CC(=O)O)CCN(CC(=O)O)CC1)C(=O)O)C(=O)O (stereo partly drawn) [Ligand L9]
Result: 7.80 % IA/10^6 cells

Task: Which specific internalization is reported with PSMA(+) PC3 PIP cells for this entry: O=C(O)CC[C@H](NC(=O)N[C@@H](CCCCN(Cc1ccc(I)cc1)C(=O)CCCCNC(=O)CN1CCN(CC(=O)O)CCN(CC(=O)O)CCN(CC(=O)O)CC1)C(=O)O)C(=O)O [Ligand L2] ?
Result: 24.96 ± 0.90 % IA/10^6 cells

###

biological target: PSMA (Homo sapiens (Human)); assay: PSMA binding affinity; details: Table 6, given as range
Can you tell me Ki for the items I'm about to list?

Task: Reported Ki, compound O=C(O)CC[C@H](NC(=O)N[C@@H](CCCCNC(=O)CCCCNC(=S)Nc1ccc(CC2CN(CC(=O)O)CCN(CC(=O)O)CCN(CC(=O)O)CCN2CC(=O)O)cc1)C(=O)O)C(=O)O (stereo partly drawn) [Ligand L7] : ____
Result: 0.29 to 0.81 nM

Task: Would you kindly share the measured Ki for O=C(O)CC[C@H](NC(=O)N[C@@H](CCCCN(Cc1ccc(I)cc1)C(=O)CCCCCNC(=O)c1ccc(CNC(=O)CN2CCN(CC(=O)O)CCN(CC(=O)O)CCN(CC(=O)O)CC2)cc1)C(=O)O)C(=O)O [Ligand L4] ?
Result: 0.14 to 0.39 nM

Task: Record request: Ki value, item O=C(O)CC[C@H](NC(=O)N[C@@H](CCCCN(Cc1ccc(Br)cc1)C(=O)CCCCNC(=S)Nc1ccc(CC2CN(CC(=O)O)CCN(CC(=O)O)CCN(CC(=O)O)CCN2CC(=O)O)cc1)C(=O)O)C(=O)O (stereo partly drawn) [Ligand L8]
Result: 0.08 to 0.16 nM

###

Would you kindly list IC50 for each of these compounds?
target: PSMA (Homo sapiens (Human))

Task: GET /values?readout=IC50&item= O=C(O)CC[C@H](NC(=O)N[C@@H](CCCCNC(=O)CCCCNC(=S)Nc1ccc(CC2CN(CC(=O)O)CCN(CC(=O)O)CCN(CC(=O)O)CCN2CC(=O)O)cc1)C(=O)O)C(=O)O (some centres unmarked)
Result: 2.16 nM

Task: I would be grateful if you could share the reported IC50 for O=C(O)CC[C@H](NC(=O)N[C@@H](CCCCN(Cc1ccc(Br)cc1)C(=O)CCCCNC(=O)CN1CCN(CC(=O)O)CCN(CC(=O)O)CCN(CC(=O)O)CC1)C(=O)O)C(=O)O .
Result: 0.64 nM

###

molecular target: PSMA (Homo sapiens (Human), UniProt Q04609); test: PSMA binding affinity; details: Table 6, given as range
pKi: −log10 of the molar value.
parameter: pKi

Task: Give PSMA (Homo sapiens (Human), UniProt Q04609) pKi for O=C(O)CC[C@H](NC(=O)N[C@@H](CCCCN(Cc1ccc(Br)cc1)C(=O)CCCCCNC(=O)c1ccc(CNC(=O)CN2CCN(CC(=O)O)CCN(CC(=O)O)CCN(CC(=O)O)CC2)cc1)C(=O)O)C(=O)O
Result: 7.47 to 10.05

Task: # query: pKi | item O=C(O)CC[C@H](NC(=O)N[C@@H](CCCCN(Cc1ccc(I)cc1)C(=O)CCCCNC(=O)CN1CCN(CC(=O)O)CCN(CC(=O)O)CCN(CC(=O)O)CC1)C(=O)O)C(=O)O | system: PSMA (Homo sapiens (Human), UniProt Q04609)
Result: 9.48 to 9.70

Task: Value wanted: pKi (PSMA (Homo sapiens (Human), UniProt Q04609)) of entry O=C(O)CC[C@H](NC(=O)N[C@@H](CCCCN(Cc1ccc(I)cc1)C(=O)CCCCCCC(=O)NCCCCNC(=O)c1ccc(CNC(=O)CN2CCN(CC(=O)O)CCN(CC(=O)O)CCN(CC(=O)O)CC2)cc1)C(=O)O)C(=O)O
Result: 9.03 to 9.46
